# Tested on: enzyme of the present invention (KDNase)
# PROCEDURE TEXT: Inhibition and activation of the enzyme, 4-MU-KDN method
# Type: biochemical, Sphingobacterium mOL12-4s
# CONDITION DETAILS: added at 1 mM
EXPERIMENTAL READOUT: effect on the activity of the enzyme

INSERT INTO measurements (structure_notation, experimental_readout, test_result) VALUES
  ('[Mg+2]', 'effect on the activity of the enzyme', 'not affected'),
  ('O=C(O)CN(CCN(CC(=O)O)CC(=O)O)CC(=O)O', 'effect on the activity of the enzyme', 'not affected'),
  ('[Mn+2]', 'effect on the activity of the enzyme', 'not affected'),
  ('[Ca+2]', 'effect on the activity of the enzyme', 'not affected');
